- target.under.test: T1, 6xHis-tagged ENL YEATS domain (human, UniProt Q03111 1-148)
- T1 chain: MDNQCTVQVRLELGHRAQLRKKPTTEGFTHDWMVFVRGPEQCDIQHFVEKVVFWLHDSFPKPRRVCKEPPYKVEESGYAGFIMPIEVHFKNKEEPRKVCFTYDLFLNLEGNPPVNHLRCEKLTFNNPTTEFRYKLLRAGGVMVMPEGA
- method.notes: BLI; His-ENL immobilised on Ni-NTA biosensors, peptides in solution at different concentrations (set-up told for ENL YEATS; the other YEATS domains were analysed 'similarly')
Where no end group is shown, it is not given here. The star is where a group is joined. Butyryl = CCCC(=O)*

binder	Kd [nM]
YDVYCYK(Butyryl) [ENL-S1]	36.3
